The following molecules are shown together with reported LD50 at 168 h values.
experiment: Acute toxicity in mice, seven day values; format: in vivo; conditions: mouse, in vivo, po, male NMRI mice, intragastrally
Use mg/kg as the unit, but write only the number.

| Molecule | Unit Spec | Numeric Readout |
| --- | --- | --- |
| CCSC1=C(C#N)C(c2ccccc2)(c2ccccc2)C(=O)N1CCN1CCCCC1.Cl | mg/kg | 1600 |
| CC(C)SC1=C(C#N)C(c2ccccc2)(c2ccccc2)C(=O)N1CCCN(C)C | mg/kg | 1400 |

Data request, read-out LD50 at 168 h, for CCSC1=C(C#N)C(c2ccccc2)(c2ccccc2)C(=O)N1CCCN1CCCCC1.O=C(O)C(=O)O
700

Now consider CSC1=C(C#N)C(c2ccc(N(C)C)cc2)(c2cccnc2)C(=O)N1CCCN(C)C (stereo not drawn) .
1200
